- tgt: Casein kinase I isoform epsilon (Homo sapiens, UniProt P49674)
- Sequence (P49674 whole entry, canonical isoform): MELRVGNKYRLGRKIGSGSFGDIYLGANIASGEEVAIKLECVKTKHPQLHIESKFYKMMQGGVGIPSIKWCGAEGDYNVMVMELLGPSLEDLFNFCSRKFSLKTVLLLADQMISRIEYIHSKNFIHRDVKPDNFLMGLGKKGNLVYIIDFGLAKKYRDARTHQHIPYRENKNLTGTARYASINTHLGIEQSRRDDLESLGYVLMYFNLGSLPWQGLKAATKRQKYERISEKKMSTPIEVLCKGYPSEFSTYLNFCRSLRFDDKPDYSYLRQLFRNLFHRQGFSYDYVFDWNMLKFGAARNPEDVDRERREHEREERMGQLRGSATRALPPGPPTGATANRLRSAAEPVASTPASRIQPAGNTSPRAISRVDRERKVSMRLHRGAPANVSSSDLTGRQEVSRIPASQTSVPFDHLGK
- assay_overview: Inhibition of human recombinant CK1 epsilon expressed in baculovirus in sf9 insect cells using RRKHAAIGSpAYSITA as substrate in presence of ATP measured after 30 mins by ADP-Glo assay
reported_endpoint: IC50
Report as: number unit

Inquiry: Note IC50 for the compound shown: `CCCNc1ccc2ncc(-c3ccc4[nH]ncc4c3)n2n1`
Reply text: 99 nM

====

- tgt: Serine/threonine-protein kinase PLK3 (Homo sapiens)
- Sequence (Q9H4B4 whole entry): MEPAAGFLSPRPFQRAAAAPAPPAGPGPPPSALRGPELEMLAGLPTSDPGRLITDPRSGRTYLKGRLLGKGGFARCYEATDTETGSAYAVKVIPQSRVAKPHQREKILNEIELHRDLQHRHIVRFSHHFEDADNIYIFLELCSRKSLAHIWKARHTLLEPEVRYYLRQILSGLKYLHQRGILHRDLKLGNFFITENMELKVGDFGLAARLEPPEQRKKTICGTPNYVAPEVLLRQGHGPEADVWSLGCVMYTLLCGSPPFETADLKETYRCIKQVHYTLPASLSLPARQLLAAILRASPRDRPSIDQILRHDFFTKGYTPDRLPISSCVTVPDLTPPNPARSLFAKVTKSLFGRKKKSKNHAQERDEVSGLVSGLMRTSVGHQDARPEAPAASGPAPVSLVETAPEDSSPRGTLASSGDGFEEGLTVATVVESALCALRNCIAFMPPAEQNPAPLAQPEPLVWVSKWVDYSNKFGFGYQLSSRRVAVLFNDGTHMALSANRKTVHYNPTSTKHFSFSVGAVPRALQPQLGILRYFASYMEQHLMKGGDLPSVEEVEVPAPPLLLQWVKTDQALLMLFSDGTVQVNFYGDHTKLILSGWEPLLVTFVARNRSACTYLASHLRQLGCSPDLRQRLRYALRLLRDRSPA
- assay_overview: Inhibition of human recombinant PLK3 in presence of ATP by kinomescan assay
reported_endpoint: IC50 (µM)
Express your answer in µM, writing the number without its unit.

Inquiry: Note IC50 for the compound shown: `COc1ncc2cc3cnccc3c([N+](=O)[O-])c2n1`
Reply text: 0.117

====

# Lookup of reported IC50 keyed by entry
- tgt: Dual specificity protein kinase CLK1 (Mus musculus)
- Sequence (P22518 whole entry): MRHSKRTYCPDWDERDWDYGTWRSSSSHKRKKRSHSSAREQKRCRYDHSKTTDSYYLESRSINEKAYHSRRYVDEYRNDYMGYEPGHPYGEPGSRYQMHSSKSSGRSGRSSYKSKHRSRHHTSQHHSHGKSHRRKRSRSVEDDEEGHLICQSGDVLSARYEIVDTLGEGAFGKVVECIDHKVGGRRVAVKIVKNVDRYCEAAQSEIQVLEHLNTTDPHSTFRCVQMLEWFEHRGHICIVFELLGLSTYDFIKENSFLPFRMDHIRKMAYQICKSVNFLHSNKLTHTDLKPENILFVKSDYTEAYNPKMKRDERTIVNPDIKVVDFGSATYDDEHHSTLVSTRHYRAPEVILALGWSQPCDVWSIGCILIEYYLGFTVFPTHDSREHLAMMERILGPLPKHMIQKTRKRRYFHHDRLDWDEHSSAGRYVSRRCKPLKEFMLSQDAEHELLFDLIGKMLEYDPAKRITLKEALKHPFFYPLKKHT
- assay_overview: Inhibition of recombinant mouse CLK1 expressed in bacteria using GRSRSRSRSRSR as substrate in presence of ATP measured after 30 mins by ADP-Glo assay
Express your answer in nM, writing the number without its unit.

{"columns": ["compound_structure", "reported_endpoint", "experimental_value"],
 "data": [
  ["Nc1ccc2cc3cnccc3c([N+](=O)[O-])c2n1", "IC50", 20],
  ["CCCCSc1ncc2cc3cnccc3c(N)c2n1", "IC50", 92],
  ["CCCSc1ncc2cc3cnccc3c(N)c2n1", "IC50", 90],
  ["CSc1ncc2cc3cnccc3c(N)c2n1", "IC50", 37],
  ["CCCNc1ccc2ncc(-c3ccc4[nH]ncc4c3)n2n1", "IC50", 8],
  ["CC(C)Sc1ncc2cc3cnccc3c(N)c2n1", "IC50", 72]
]}

// switching to the query compound
Inquiry: Note IC50 for the compound shown: `CCSc1ncc2cc3cnccc3c([N+](=O)[O-])c2n1`
Reply text: 148

====

- assay_overview: Cytotoxicity against human TERT-RPE1 cells assessed as reduction in cell viability measured after 48 hrs by MTS assay
- Format: toxicity, cell-based
reported_endpoint: EC50 at 48 h (nM)
Express your answer in nM, writing the number without its unit.

Inquiry: Note EC50 at 48 h for the compound shown: `COc1ncc2cc3cnccc3c([N+](=O)[O-])c2n1`
Reply text: 3200

Inquiry: Note EC50 at 48 h for the compound shown: `CSc1ncc2cc3cnccc3c([N+](=O)[O-])c2n1`
Reply text: 800

Inquiry: Note EC50 at 48 h for the compound shown: `Nc1ccc2cc3cnccc3c([N+](=O)[O-])c2n1`
Reply text: 400

====

# Lookup of reported IC50 keyed by entry
- tgt: Dual specificity tyrosine-phosphorylation-regulated kinase 1A (Rattus norvegicus)
- assay_overview: Inhibition of recombinant rat DYRK1A (1 to 499 residues ) expressed in bacterial expression system using KKISGRLSPIMTEQ as substrate measured after 30 mins in presence of ATP by ADP-Glo assay
Express your answer in nM, writing the number without its unit.

Guide cases for IC50, answers given:
{"columns": ["compound_structure", "IC50, nM"],
 "data": [
  ["CCCCSc1ncc2cc3cnccc3c(N)c2n1", 132],
  ["CCSc1ncc2cc3cnccc3c([N+](=O)[O-])c2n1", 515],
  ["CCCSc1ncc2cc3cnccc3c(N)c2n1", 148]
]}

Inquiry: Give reported IC50 for `CSc1ncc2cc3cnccc3c(N)c2n1` (Dual specificity tyrosine-phosphorylation-regulated kinase 1A (Rattus norvegicus))
Reply text: 47

Inquiry: Give reported IC50 for `CC(C)Sc1ncc2cc3cnccc3c(N)c2n1` (Dual specificity tyrosine-phosphorylation-regulated kinase 1A (Rattus norvegicus))
Reply text: 594

Inquiry: Give reported IC50 for `CCCNc1ccc2ncc(-c3ccc4[nH]ncc4c3)n2n1` (Dual specificity tyrosine-phosphorylation-regulated kinase 1A (Rattus norvegicus))
Reply text: 13

Inquiry: Give reported IC50 for `Nc1ccc2cc3cnccc3c([N+](=O)[O-])c2n1` (Dual specificity tyrosine-phosphorylation-regulated kinase 1A (Rattus norvegicus))
Reply text: 87
